- target_entity: PKC-δ (Homo sapiens, UniProt Q05655)
- Construct: purchased Invitrogen (Sinobiological for the SUW402 experiment)
- Sequence (Q05655 whole entry): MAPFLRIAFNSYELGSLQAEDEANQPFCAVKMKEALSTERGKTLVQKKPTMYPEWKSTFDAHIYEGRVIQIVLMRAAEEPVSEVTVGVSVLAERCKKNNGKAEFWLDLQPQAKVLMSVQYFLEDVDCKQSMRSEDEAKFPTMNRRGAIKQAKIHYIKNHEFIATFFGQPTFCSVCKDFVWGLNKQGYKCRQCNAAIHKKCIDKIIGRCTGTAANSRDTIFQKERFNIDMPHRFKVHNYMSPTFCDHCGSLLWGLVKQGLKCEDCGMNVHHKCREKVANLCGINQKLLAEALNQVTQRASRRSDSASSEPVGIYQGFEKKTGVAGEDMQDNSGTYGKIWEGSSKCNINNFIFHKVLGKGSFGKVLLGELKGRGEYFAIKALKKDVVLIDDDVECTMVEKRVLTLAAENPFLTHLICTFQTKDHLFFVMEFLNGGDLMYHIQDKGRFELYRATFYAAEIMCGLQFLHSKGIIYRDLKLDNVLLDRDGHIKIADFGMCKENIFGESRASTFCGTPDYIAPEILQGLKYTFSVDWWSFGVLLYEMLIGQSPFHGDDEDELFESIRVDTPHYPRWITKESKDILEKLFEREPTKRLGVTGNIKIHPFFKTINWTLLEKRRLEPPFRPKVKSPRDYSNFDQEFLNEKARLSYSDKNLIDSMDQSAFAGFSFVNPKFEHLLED
- experiment_notes: Cell-free PKC competition binding assay against 3H-PDBu
- condition_set: log of Ki in nM; HotNM 2.5; HotKdNM 0.62
Label Yes when logKi (best-fit value), PKC-δ >= 0.5; otherwise No.

I'd appreciate it if you could say whether C/C=C(\C)C(=O)O[C@@H]1[C@@H](C)[C@]2(O)[C@@H]3C=C(C)[C@H](OC(=O)C=C(C)C)[C@@]3(O)[C@H](O)C(CO)=C[C@H]2[C@@H]2C(C)(C)[C@]12OC(=O)[C@@H](C)CC [SUW425] has logKi (best-fit value), PKC-δ at least equal to 0.5. Yes

CC[C@H](C)C(=O)O[C@@]12[C@H](OC(C)(C)C)[C@@H](C)[C@@]3(O)[C@H]([C@@H]1C2(C)C)[C@@H]1O[C@]1(CO)[C@@H](O)[C@]1(O)C(=O)C(C)=C[C@H]13 [SUW430] , same question. Yes

What would you report for CC[C@H](C)C(=O)O[C@@]12[C@H](OC(=O)C3(C)CC3)[C@@H](C)[C@@]3(O)[C@H]([C@@H]1C2(C)C)[C@@H]1O[C@]1(CO)[C@@H](O)[C@]1(O)C(=O)C(C)=C[C@H]13 [SUW413] ? Yes

Would you kindly repeat that for CC[C@H](C)C(=O)O[C@@]12[C@H](OC(=O)N3CCCC3)[C@@H](C)[C@@]3(O)[C@H]([C@@H]1C2(C)C)[C@@H]1O[C@]1(CO)[C@@H](O)[C@]1(O)C(=O)C(C)=C[C@H]13 [SUW424] ? Yes

Try the compound C/C=C(\C)C(=O)O[C@@H]1[C@@H](C)[C@@]2(O)[C@H]([C@@H]3C(C)(C)[C@]13OC(=O)Cc1cccc3ccccc13)[C@@H]1O[C@]1(CO)[C@@H](O)[C@]1(O)C(=O)C(C)=C[C@H]12 [SUW431] No

// same read-out, input: C/C=C(\C)C(=O)O[C@@H]1[C@@H](C)[C@]2(O)[C@@H]3C=C(C)C(=O)[C@@]3(O)[C@H](O)C(CO)=C[C@H]2[C@@H]2C(C)(C)[C@]12OC(=O)[C@@H](C)CC [SUW400] No

Do the same for CC=C(C)C(=O)OC1C(C)C2(O)C(C3OC3(CO)CC3(O)C(=O)C(C)=CC32)C2C(C)(C)C12OC(=O)C(C)CC (centres unmarked) [SUW403] please Yes
